target: MDTS6Cys (Homo sapiens, UniProt Q8TE58); construct: unpurified culture supernatant used as enzyme source; assay: ELISA screening system for aggrecanase activity inhibition (anti-aggrecanase neoepitope antibody); settings: MDTS6Cys culture supernatant, recombinant aggrecan G1G2 substrate, 37° C. for several hours; read-out: aggrecanase activity inhibition strength (IC50)
Sequence (Q8TE58 213-687): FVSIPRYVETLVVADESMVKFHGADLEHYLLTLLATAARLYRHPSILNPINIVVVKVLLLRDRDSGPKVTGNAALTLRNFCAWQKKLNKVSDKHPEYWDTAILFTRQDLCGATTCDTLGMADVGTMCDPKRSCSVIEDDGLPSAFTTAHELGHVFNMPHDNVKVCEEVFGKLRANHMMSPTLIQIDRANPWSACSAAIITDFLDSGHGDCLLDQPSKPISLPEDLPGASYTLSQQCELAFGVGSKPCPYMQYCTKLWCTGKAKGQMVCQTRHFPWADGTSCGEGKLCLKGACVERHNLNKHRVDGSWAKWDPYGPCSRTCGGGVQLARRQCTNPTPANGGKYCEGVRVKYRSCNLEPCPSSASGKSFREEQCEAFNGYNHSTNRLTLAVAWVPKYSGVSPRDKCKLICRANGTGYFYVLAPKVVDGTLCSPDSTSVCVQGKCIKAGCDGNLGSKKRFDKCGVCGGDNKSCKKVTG
RECORDED_ENDPOINT: IC50 (nM)
Answers are plain numbers, in nM.

Problem: Give its IC50 value. Item: CNC(=O)[C@H](Cc1ccccc1)NC(=O)C(CC(C)C)C(CS)C(=O)NO (stereo partly shown)
Solution: 1000

Numbers sourced from patent US6716613B1.
